# assay_system: 5-LO (Homo sapiens, UniProt P09917)
# Construct: effects of a test compound against 5-LO and also cyclooxygenase in the presence of blood cells and proteins; endogenous in cells
# Sequence (P09917 whole entry): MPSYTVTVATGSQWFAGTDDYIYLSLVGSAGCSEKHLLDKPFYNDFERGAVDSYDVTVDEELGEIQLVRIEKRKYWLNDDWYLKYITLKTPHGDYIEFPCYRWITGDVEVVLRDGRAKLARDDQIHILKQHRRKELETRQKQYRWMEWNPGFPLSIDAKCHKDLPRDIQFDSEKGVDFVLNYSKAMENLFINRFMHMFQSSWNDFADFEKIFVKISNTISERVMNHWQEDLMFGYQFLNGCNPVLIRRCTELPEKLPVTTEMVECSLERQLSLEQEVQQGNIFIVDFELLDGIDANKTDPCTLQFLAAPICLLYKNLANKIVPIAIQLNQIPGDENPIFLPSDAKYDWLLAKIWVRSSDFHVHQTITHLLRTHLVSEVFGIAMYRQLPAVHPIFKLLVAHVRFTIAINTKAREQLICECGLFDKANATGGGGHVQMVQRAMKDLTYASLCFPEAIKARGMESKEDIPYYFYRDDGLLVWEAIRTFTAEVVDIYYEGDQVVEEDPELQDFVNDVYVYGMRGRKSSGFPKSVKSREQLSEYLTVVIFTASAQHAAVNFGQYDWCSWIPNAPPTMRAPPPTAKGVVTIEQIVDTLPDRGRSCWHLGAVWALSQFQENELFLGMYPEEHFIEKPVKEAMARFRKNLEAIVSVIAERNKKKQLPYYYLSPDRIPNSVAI
# experiment_summary: Test a) in vitro inhibition of LTB4 production in A23187-challenged heparinised human blood (radioimmunoassay)
# condition_parameters: calcium ionophore A23187 challenge
reported_endpoint: pIC50
Scale: pIC50 equals -log10([C]), with [C] in mol/L.

INPUT: For the molecule `C=CCC(C#N)(CC=C)c1cccc(OCc2ccc3c(ccc(=O)n3C)c2)c1` , what pIC50 is on record?
OUTPUT: 7.30

INPUT: Would you mind doing `CCC(CC)(C(C)=O)c1cccc(OCc2ccc3c(ccc(=O)n3C)c2)c1` as well?
OUTPUT: 6.82

INPUT: And for `CCC(C#N)(CC)c1cccc(OCc2ccc3c(ccc(=O)n3C)c2)c1` ?
OUTPUT: 6.30

INPUT: Please do the same for CCC(C)(C#N)c1cccc(OCc2ccc3c(ccc(=O)n3C)c2)c1 (stereo not shown) as well.
OUTPUT: 7.10
